Molecular target: human FXR (Homo sapiens)
Construct: expressed in transfected cells; host or cells: HEK293 cells stably carrying a 5xGal4-response-element firefly luciferase reporter, transiently transfected with pcDNA3.1-Gal4-FXR
Sequence (Q96RI1 262-486 limits assumed): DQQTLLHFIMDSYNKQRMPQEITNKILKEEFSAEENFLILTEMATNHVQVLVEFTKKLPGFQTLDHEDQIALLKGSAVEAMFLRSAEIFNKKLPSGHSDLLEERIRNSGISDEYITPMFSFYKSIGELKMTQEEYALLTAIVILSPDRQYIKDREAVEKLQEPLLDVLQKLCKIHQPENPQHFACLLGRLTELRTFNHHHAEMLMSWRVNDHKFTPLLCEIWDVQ
Assay: transient human FXR/Gal4-luciferase reporter assay
Format: cell-based
Details: Gal4-hFXR transfected HEK293 reporter cells; relative to 8 μM GW-4064
Mark Y for EC50 under 200 nM, N if at or over.

Worked examples follow.
1) O=C(O)c1ccc2nc(N3CCC4(C=C(c5c(-c6ccccc6C(F)(F)F)noc5C5CC5)C4)CC3)sc2n1: Y
2) O=C(O)c1cccc(N2CCC3(C=C(c4c(-c5c(Cl)cccc5Cl)noc4C4CC4)C3)CC2)c1: N
3) CS(=O)(=O)NC(=O)c1cc(OC(F)F)c2cc(N3CCC4(C=C(c5c(-c6c(Cl)cncc6Cl)noc5C5CC5)C4)CC3)ccc2n1: Y
4) Cc1cc(C(=O)O)nc2ccc(N3CCC4(C=C(c5c(-c6c(Cl)cncc6Cl)noc5C5CC5)C4)CC3)cc12: Y
5) COc1cncc(F)c1-c1noc(C2CC2)c1C1=CC2(CCN(c3ccc4nc(C(=O)O)cc(C(F)(F)F)c4c3)CC2)C1: N

Q: Given O=C(O)c1ccc(N2CCC3(C=C(c4c(-c5ccccc5OC(F)(F)F)noc4C4CC4)C3)CC2)nn1 , is recorded EC50 strictly lower than 200 nM?
Result: N

* * *

Target: human FXR (Homo sapiens)
Experiment: transient human FXR/Gal4-luciferase reporter assay
Details: Gal4-hFXR transfected HEK293 reporter cells; relative to 8 μM GW-4064
readout_label: EC50
Answer format: number, then unit.

1) O=C(O)c1cc2ccc(N3CCC4(C=C(c5c(-c6cnccc6C(F)(F)F)noc5C5CC5)C4)CC3)cc2nn1 [Example 81]: 1.54 µM
2) O=C(O)c1ccc2cc(OC3CCC4(C=C(c5c(-c6c(Cl)cccc6Cl)noc5C5CC5)C4)CC3)ccc2n1 (stereo not shown) [Example 210]: 0.485 µM

Q: State the recorded EC50 for this entry: NC(=O)c1cc(F)c2nc(N3CCC4(C=C(c5c(-c6c(Cl)cncc6Cl)noc5C5CC5)C4)CC3)sc2c1 [Example 202]
Result: 0.155 µM

Q: State the recorded EC50 for this entry: O=C(O)c1cccc(N2CCC3(CC2)COC(c2c(-c4ccccc4OC(F)(F)F)noc2C2CC2)O3)n1 (stereo not shown) [Example 44]
Result: 5 µM

Q: State the recorded EC50 for this entry: COc1cc(C(=O)O)cc2sc(N3CCC4(C=C(c5c(-c6ccccc6C(F)(F)F)noc5C5CC5)C4)CC3)nc12 [Example 71]
Result: 0.0094 µM

Q: State the recorded EC50 for this entry: O=C(O)c1cc(C(F)(F)F)c2cc(N3CCC4(C=C(c5c(C(C6CC6)C6CC6)noc5C5CC5)C4)CC3)ccc2n1 [Example 212]
Result: 1.55 µM

Q: State the recorded EC50 for this entry: Cc1cc(C(=O)O)cc2sc(N3CCC4(C=C(c5c(C(F)F)cnn5-c5ccccc5OC(F)(F)F)C4)CC3)nc12 [Example 221]
Result: 0.182 µM

* * *

Quick list: EC50 per entry.
Target: human FXR (Homo sapiens, UniProt Q96RI1)
Test: transient human FXR/Gal4-luciferase reporter assay
Conditions: Gal4-hFXR transfected HEK293 reporter cells; relative to 8 μM GW-4064
State the answer as a number, implicitly in nM.

Use the examples below as a reference point.
1. O=C(O)c1cc(C(F)(F)F)c2cc(N3CCC4(C=C(c5c(C(F)F)cnn5-c5ccccc5C(F)(F)F)C4)CC3)ccc2n1: 26
2. O=C(O)c1ccc(N2CCC3(C=C(c4c(C(F)F)cnn4-c4ccccc4C(F)(F)F)C3)CC2)nc1: 205
3. O=C(O)c1cc2ccc(N3CCC4(C=C(c5c(-c6c(Cl)cncc6Cl)noc5C5CC5)C4)CC3)cc2nn1: 191
4. O=C(O)c1cc(OCCO)c2cc(N3CCC4(C=C(c5c(-c6c(Cl)cncc6Cl)noc5C5CC5)C4)CC3)ccc2n1: 147
5. O=C(NS(=O)(=O)C1CC1)c1cc(OC(F)F)c2cc(N3CCC4(C=C(c5c(-c6cnccc6C(F)(F)F)noc5C5CC5)C4)CC3)ccc2n1: 43

Q: State the recorded EC50 for this entry: O=C(O)c1ccc2nc(N3CCC4(C=C(c5c(-c6c(Cl)cccc6Cl)noc5C5CC5)C4)CC3)oc2c1
Result: 127

Q: State the recorded EC50 for this entry: O=C(O)c1nc(C(F)(F)F)n2cc(N3CCC4(C=C(c5c(-c6ccccc6OC(F)(F)F)noc5C5CC5)C4)CC3)ccc12
Result: 494

Q: State the recorded EC50 for this entry: O=C(O)c1cc(F)c2nc(N3CCC4(C=C(c5c(C(F)F)cnn5-c5c(Cl)cncc5Cl)C4)CC3)sc2c1
Result: 88

Q: State the recorded EC50 for this entry: O=C(O)c1ccc(OC2CCC3(CC2)CC(O)(c2c(-c4c(Cl)cccc4Cl)noc2C2CC2)C3)cc1 (stereo not drawn)
Result: 6660

Q: State the recorded EC50 for this entry: Cn1nc(N2CCC3(C=C(c4c(-c5ccccc5OC(F)(F)F)noc4C4CC4)C3)CC2)c2ncc(C(=O)O)cc21
Result: 2790

* * *

Target: human FXR (Homo sapiens)
Construct: expressed in transfected cells; host or cells: HEK293 cells stably carrying a 5xGal4-response-element firefly luciferase reporter, transiently transfected with pcDNA3.1-Gal4-FXR
Assay: transient human FXR/Gal4-luciferase reporter assay
Type: cell-based
Settings: Gal4-hFXR transfected HEK293 reporter cells; relative to 8 μM GW-4064
From the text: A Gal4-hFXR fusion construct reporter system was used as the primary assay to characterize compound activity. […] The day prior to transfection, the reporter cells in culture are detached from the plate with trypsin and plated into a T75 flask at a sufficient density to achieve approximately 90% confluence the next morning. […] This protocol can be scaled up, and the transiently transfected cells can be cryopreserved in an assay-ready format. […]
Quick list: pEC50 per entry.
Please keep in mind that pEC50 is minus log10 of the molar concentration; only the number is needed.

Use the examples below as a reference point.
1. CC(C)NC(=O)c1cc(F)c2nc(N3CCC4(C=C(c5c(-c6c(Cl)cncc6Cl)noc5C5CC5)C4)CC3)sc2c1 [Example 199]: 6.37
2. O=C(O)c1cc(F)c2nc(OC3CCC4(CC3)CC(O)(c3c(-c5c(Cl)cccc5Cl)noc3C3CC3)C4)sc2c1 (centres unmarked) [Example 205]: 5.58
3. O=C(O)c1cc(C(F)(F)F)c2cc(N3CCC4(C=C(c5c(-c6ncccc6Cl)noc5C5CC5)C4)CC3)ccc2n1 [Example 91]: 6.66
4. Cn1nc(C(=O)O)c2ccc(N3CCC4(C=C(c5c(-c6c(Cl)cccc6Cl)noc5C5CC5)C4)CC3)cc21 [Example 125]: 7.02

Q: State the recorded pEC50 for this entry: O=C(O)c1cccc(COC2CCC3(CC2)CC(O)(c2c(-c4c(Cl)cccc4Cl)noc2C2CC2)C3)c1 (centres unmarked) [Example 206]
Result: 5.33

Q: State the recorded pEC50 for this entry: Cn1cc(C(=O)O)c2ccc(N3CCC4(C=C(c5c(C6CCCCC6)noc5C5CC5)C4)CC3)cc21 [Example 168]
Result: 5.40

Q: State the recorded pEC50 for this entry: O=C(O)c1cc(OC(F)(F)F)c2nc(N3CCC4(C=C(c5c(-c6c(Cl)cncc6Cl)noc5C5CC5)C4)CC3)sc2c1 [Example 50]
Result: 7.96

Q: State the recorded pEC50 for this entry: O=C(O)c1cc(F)c2nc(N3CCC4(C=C(c5c(-c6c(Cl)cccc6Cl)noc5C5CC5)CO4)CC3)sc2c1 [Example 3]
Result: 6.62

Q: State the recorded pEC50 for this entry: COc1cc(C(=O)O)nc2ccc(N3CCC4(C=C(c5c(-c6ncccc6Cl)noc5C5CC5)C4)CC3)cc12 [Example 145]
Result: 6.80

Q: State the recorded pEC50 for this entry: O=C(O)c1ccc(N2CC3(C=C(c4c(-c5ccccc5C(F)(F)F)noc4C4CC4)C3)C2)nc1 [Example 35]
Result: 5.37

Q: State the recorded pEC50 for this entry: CNC(=O)c1cc(F)c2nc(N3CCC4(C=C(c5c(-c6c(Cl)cncc6Cl)noc5C5CC5)C4)CC3)sc2c1 [Example 198]
Result: 6.51

Q: State the recorded pEC50 for this entry: CS(=O)(=O)NC(=O)c1cc(OC(F)F)c2cc(N3CCC4(C=C(c5c(-c6cnccc6C(F)(F)F)noc5C5CC5)C4)CC3)ccc2n1 [Example 187]
Result: 7.20

Q: State the recorded pEC50 for this entry: O=C(O)c1ccc2nc(N3CCC4(C=C(c5c(-c6c(Cl)cccc6Cl)noc5C5CC5)C4)CC3)cnc2c1 [Example 100]
Result: 7.48

Q: State the recorded pEC50 for this entry: O=C(O)c1cnc(N2CCC3(C=C(c4c(-c5ccccc5OC(F)(F)F)noc4C4CC4)C3)CC2)c(F)c1 [Example 27]
Result: 5.96
